# measurementTarget: human PD-1 (human, UniProt Q15116 25-288)
# Sequence (Q15116 25-288 limits assumed): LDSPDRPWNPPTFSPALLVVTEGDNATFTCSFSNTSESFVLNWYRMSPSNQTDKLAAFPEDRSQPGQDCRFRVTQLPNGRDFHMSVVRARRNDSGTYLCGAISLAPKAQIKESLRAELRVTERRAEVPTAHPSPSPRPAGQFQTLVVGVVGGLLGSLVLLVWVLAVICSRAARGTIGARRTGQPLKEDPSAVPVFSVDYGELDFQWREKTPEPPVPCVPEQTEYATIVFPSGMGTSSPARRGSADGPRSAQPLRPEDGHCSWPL
# assay: cell-based or functional assay
The following binders are listed with their measured M07e-hPD-1 cell proliferation ratio (%) at 100 nM values.
parameter: M07e-hPD-1 cell proliferation ratio (%) at 100 nM

binder	assayValue
A-PC (Fc fusion, also called positive control molecule A-PC; PD-1-IL-2v; not shown: IgG1 hinge (C220S) + Fc Knob chain (L234A, L235A, S354C, T366W, EU); D356/L358 or E356/M358 ver; IgG1 hinge (C220S) + Fc Hole chain (L234A, L235A, Y349C, T366S, L368A, Y407V; may have H435R, Y436F; EU)) chain (part 1 of 2): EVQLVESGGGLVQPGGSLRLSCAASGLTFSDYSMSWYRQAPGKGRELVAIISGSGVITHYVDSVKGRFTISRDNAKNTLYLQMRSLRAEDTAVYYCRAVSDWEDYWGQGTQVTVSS chain (part 2 of 2): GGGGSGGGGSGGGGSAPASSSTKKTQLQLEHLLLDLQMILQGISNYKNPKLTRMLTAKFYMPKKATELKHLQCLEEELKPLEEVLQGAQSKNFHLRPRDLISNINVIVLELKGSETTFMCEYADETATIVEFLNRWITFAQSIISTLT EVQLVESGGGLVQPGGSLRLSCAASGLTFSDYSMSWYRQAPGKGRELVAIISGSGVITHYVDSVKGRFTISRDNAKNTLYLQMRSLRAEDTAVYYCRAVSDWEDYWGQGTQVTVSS	105
A-N88D (Fc fusion, also called PD-1-IL-2v (N88D); not shown: IgG1 hinge (C220S) + Fc Knob chain (L234A, L235A, S354C, T366W, EU); D356/L358 or E356/M358 ver; IgG1 hinge (C220S) + Fc Hole chain (L234A, L235A, Y349C, T366S, L368A, Y407V; may have H435R, Y436F; EU)) chain (part 1 of 2): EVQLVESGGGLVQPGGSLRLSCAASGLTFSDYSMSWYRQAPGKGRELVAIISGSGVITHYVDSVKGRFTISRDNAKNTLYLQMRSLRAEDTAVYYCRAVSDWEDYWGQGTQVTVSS chain (part 2 of 2): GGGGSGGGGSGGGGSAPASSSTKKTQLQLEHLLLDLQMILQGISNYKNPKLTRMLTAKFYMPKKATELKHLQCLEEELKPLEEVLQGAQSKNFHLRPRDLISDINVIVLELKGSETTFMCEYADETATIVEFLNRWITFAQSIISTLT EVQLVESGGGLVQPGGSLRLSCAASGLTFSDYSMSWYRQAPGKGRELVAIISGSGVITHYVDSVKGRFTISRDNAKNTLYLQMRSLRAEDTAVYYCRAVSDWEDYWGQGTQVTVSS	41.1
A-N88D-M08 (Fc fusion, also called A-N88D-M8; not shown: IgG1 hinge (C220S) + Fc Knob chain as in A-N88D; IgG1 hinge (C220S) + Fc Hole chain as in A-N88D) chain (part 1 of 2): EVQLVESGGGLVQPGGSLRLSCAASGLTFSDYSMSWYRQAPGKGRELVAIISGSGVITHYVDSVKGRFTISRDNAKNTLYLQMRSLRAEDTAVYYCRAVSDWQDYWGQGTQVTVSS chain (part 2 of 2): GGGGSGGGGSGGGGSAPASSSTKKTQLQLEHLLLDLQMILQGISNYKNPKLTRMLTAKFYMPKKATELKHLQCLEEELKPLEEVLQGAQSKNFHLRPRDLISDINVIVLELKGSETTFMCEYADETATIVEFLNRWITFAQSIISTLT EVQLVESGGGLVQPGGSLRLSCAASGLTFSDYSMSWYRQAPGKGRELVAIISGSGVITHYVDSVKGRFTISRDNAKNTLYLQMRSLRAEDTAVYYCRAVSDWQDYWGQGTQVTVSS	35.5
A-N88D-M28 (Fc fusion, not shown: IgG1 hinge (C220S) + Fc Knob chain as in A-N88D; IgG1 hinge (C220S) + Fc Hole chain as in A-N88D) chain (part 1 of 2): EVQLVESGGGLVQPGGSLRLSCAASGLTFSSYSMSWYRQAPGKGRELVAIISGSGGITHYADSVKGRFTISRDNAKNTLYLQMRSLRAEDTAVYYCRAVSDWQDYWGQGTQVTVSS chain (part 2 of 2): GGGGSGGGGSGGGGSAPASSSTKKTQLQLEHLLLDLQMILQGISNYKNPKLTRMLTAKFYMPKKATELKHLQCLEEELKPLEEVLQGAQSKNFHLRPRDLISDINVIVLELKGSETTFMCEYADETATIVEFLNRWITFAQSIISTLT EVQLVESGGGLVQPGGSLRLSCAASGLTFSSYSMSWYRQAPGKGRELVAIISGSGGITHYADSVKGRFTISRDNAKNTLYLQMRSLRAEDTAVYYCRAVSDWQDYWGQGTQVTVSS	34.4
